Target: T1, TNFR1 (Homo sapiens, UniProt P19438)
T1 chain: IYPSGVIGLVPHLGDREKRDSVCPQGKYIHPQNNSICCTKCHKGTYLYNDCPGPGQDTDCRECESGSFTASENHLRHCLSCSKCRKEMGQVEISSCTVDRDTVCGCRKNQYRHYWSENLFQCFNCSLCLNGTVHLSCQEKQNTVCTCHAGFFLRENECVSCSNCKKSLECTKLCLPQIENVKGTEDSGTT
Assay: yeast display SC50
endpoint: apparent Kd (screen) (nM)

binder A17P (designed binder) MTLQELLREEALRRAEPEAFRYALELLAEKFPEQKEYLLDLAEEIESQIRSLSGVDVEDVRKFLDKEWAWVKELLAEHPAELAEVEAARAARLAELRAEVEAKVAA , apparent Kd (screen) observed: 0.718

The reported apparent Kd (screen) of the binder L96W (designed binder) MTLQELLREEALRRAEAEAFRYALELLAEKFPEQKEYLLDLAEEIESQIRSLSGVDVEDVRKFLDKEWAWVKELLAEHPAELAEVEAARAARLAEWRAEVEAKVAA was 0.79

(A) R97H (designed binder) MTLQELLREEALRRAEAEAFRYALELLAEKFPEQKEYLLDLAEEIESQIRSLSGVDVEDVRKFLDKEWAWVKELLAEHPAELAEVEAARAARLAELHAEVEAKVAA
(B) L3M (designed binder) MTMQELLREEALRRAEAEAFRYALELLAEKFPEQKEYLLDLAEEIESQIRSLSGVDVEDVRKFLDKEWAWVKELLAEHPAELAEVEAARAARLAELRAEVEAKVAA
Q) Would you kindly point out which of A and B has the smaller apparent Kd (screen) figure? Lab log: write the label of the selected item as the result.
A) A
